Provenance of the data: paper PMC6099615

// reported IC50 for each item listed
Tested on: Amadori compound formation
Assay Comment: Hemoglobin-δ-gluconolactone assay of Amadori compound formation
Format: biochemical
Cond: early stage of AGE formation
Structures can show the parent of a compound that is named as a salt.
Write the answer as a number in µM, unit excluded.

Example cases with answers are listed next.
Compound: O=c1cc(-c2ccccc2)oc2cc(O)cc(O)c12 [Chrysin, 5,7-dihydroxyflavone]
Endpoint Result: 17.4
//
Compound: N=C(N)NN [Aminoguanidine, Aminoguanidine hydrochloride, reference compound]
Endpoint Result: 110
//
Compound: CC(=O)Oc1cc(O)c2c(=O)cc(-c3ccccc3)oc2c1 [7-O-Acetylchrysin, 7-O-acetylchrysin]
Endpoint Result: 23.5
//
Compound: CC(=O)Oc1cc(OC(C)=O)c2c(=O)cc(-c3ccccc3)oc2c1 [5,7-Di-O-acetylchrysin, 5,7-di-O-acetylchrysin]
Endpoint Result: 0.26

Now for another entry.
Query the reported IC50 for Amadori compound formation; item: COc1cc(OC)c2c(=O)cc(-c3ccccc3)oc2c1 [5,7-Di-O-methoxychrysin, 5,7-di-O-methoxychrysin]
7.88

====

Test system: AGEs cross-linking
Assay Comment: N-acetyl-glycyl-lysine-methyl ester D-ribose assay on AGE cross-linking
Format: biochemical
Cond: GK peptide-D-ribose, 37 °C, 72 h
Counter-ions that a name gives are not always drawn.
Endpoint Label: IC50 (µM)
Write the answer as a number in µM, unit excluded.

Molecule: COc1cc(OC)c2c(=O)cc(-c3ccccc3)oc2c1
Endpoint Result: 39.9

Which IC50 is reported for this molecule? CC(=O)Oc1cc(OC(C)=O)c2c(=O)cc(-c3ccccc3)oc2c1
22.3

Which IC50 is reported for this molecule? N=C(N)NN [Aminoguanidine, Aminoguanidine hydrochloride, reference compound]
1900

====

Tested on: AGEs cross-linking
Assay Comment: N-acetyl-glycyl-lysine-methyl ester D-ribose assay on AGE cross-linking
Format: biochemical
Cond: GK peptide-D-ribose, 37 °C, 72 h
pIC50: −log10 of the molar value.
// reported pIC50 for each item listed

Molecule: COc1cc(O)c2c(=O)cc(-c3ccccc3)oc2c1 [7-O-Methoxychrysin, 7-O-methoxychrysin]
Endpoint Result: < 2.70

Molecule: CC(=O)Oc1cc(O)c2c(=O)cc(-c3ccccc3)oc2c1 [7-O-Acetylchrysin, 7-O-acetylchrysin]
Endpoint Result: < 2.70

Now for another entry.
Which pIC50 is reported for this molecule? O=c1cc(-c2ccccc2)oc2cc(O)cc(O)c12 [Chrysin, 5,7-dihydroxyflavone]
< 2.70
